Every entry's value here was drawn from ChEMBL document CHEMBL1136992.

Task for the reader: assign each of the following compounds its reported EC50.
Molecular target: Neuropeptide S receptor (Mus musculus)
Sequence (Q8BZP8 whole entry): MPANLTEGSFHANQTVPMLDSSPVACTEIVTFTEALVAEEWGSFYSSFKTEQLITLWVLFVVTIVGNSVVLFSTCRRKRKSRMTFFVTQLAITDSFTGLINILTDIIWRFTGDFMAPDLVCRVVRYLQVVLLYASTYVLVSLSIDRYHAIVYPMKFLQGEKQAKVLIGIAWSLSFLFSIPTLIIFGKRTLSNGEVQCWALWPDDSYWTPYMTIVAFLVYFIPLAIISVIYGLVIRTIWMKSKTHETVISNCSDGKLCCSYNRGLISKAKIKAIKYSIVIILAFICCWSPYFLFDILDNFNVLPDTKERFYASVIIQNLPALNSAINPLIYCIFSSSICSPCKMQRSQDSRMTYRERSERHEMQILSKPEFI
Test: Agonist activity at mouse NPSR expressed in HEK293 cells by calcium mobilization assay
Square brackets hold non-standard residues; d marks the D form. Peptide text beside a SMILES is read from it. d(tBuAla) = CC(C)(C)C[C@@H](N)C(=O)O; dPhg = N[C@@H](C(=O)O)c1ccccc1; dNva = CCC[C@@H](N)C(=O)O
Lab book: enter the figure in nM, no units written.

Prompt: Recorded EC50 for CSCC[C@H](NC(=O)CNC(=O)[C@@H](NC(=O)CNC(=O)[C@@H](NC(=O)[C@H](NC(=O)[C@H](CC(N)=O)NC(=O)[C@H](CCCN=C(N)N)NC(=O)[C@H](Cc1ccccc1)NC(=O)[C@@H](N)CO)c1ccccc1)C(C)C)[C@@H](C)O)C(=O)N[C@@H](CCCCN)C(=O)N[C@@H](CCCCN)C(=O)N[C@H](C(=O)N[C@@H](CO)C(=O)N[C@@H](Cc1ccccc1)C(=O)N[C@@H](CCC(N)=O)C(=O)N[C@@H](CCCN=C(N)N)C(=O)N[C@@H](C)C(=O)N[C@@H](CCCCN)C(=O)O)[C@@H](C)O (H-SFRN[dPhg]VGTGMKKTSFQRAK-OH) , please?
Completion: 661

Prompt: Recorded EC50 of CCC[C@@H](NC(=O)[C@H](CC(N)=O)NC(=O)[C@H](CCCN=C(N)N)NC(=O)[C@H](Cc1ccccc1)NC(=O)[C@@H](N)CO)C(=O)N[C@H](C(=O)NCC(=O)N[C@H](C(=O)NCC(=O)N[C@@H](CCSC)C(=O)N[C@@H](CCCCN)C(=O)N[C@@H](CCCCN)C(=O)N[C@H](C(=O)N[C@@H](CO)C(=O)N[C@@H](Cc1ccccc1)C(=O)N[C@@H](CCC(N)=O)C(=O)N[C@@H](CCCN=C(N)N)C(=O)N[C@@H](C)C(=O)N[C@@H](CCCCN)C(=O)O)[C@@H](C)O)[C@@H](C)O)C(C)C (H-SFRN[dNva]VGTGMKKTSFQRAK-OH) , please.
Completion: 2690

Prompt: Fill in: EC50 of CSCC[C@H](NC(=O)CNC(=O)[C@@H](NC(=O)CNC(=O)[C@@H](NC(=O)[C@H](NC(=O)[C@H](CC(N)=O)NC(=O)[C@H](CCCNC(=N)N)NC(=O)[C@H](Cc1ccccc1)NC(=O)[C@@H](N)CO)[C@H](C)O)C(C)C)[C@@H](C)O)C(=O)N[C@@H](CCCCN)C(=O)N[C@@H](CCCCN)C(=O)N[C@H](C(=O)N[C@@H](CO)C(=O)N[C@@H](Cc1ccccc1)C(=O)N[C@@H](CCC(N)=O)C(=O)N[C@@H](CCCNC(=N)N)C(=O)N[C@@H](C)C(=O)N[C@@H](CCCCN)C(=O)O)[C@@H](C)O (H-SFRN[dT]VGTGMKKTSFQRAK-OH) is ___
Completion: 794

Prompt: Requested read-out: EC50. Entry: CSCC[C@H](NC(=O)CNC(=O)[C@@H](NC(=O)CNC(=O)[C@@H](NC(=O)[C@@H](CC(C)(C)C)NC(=O)[C@H](CC(N)=O)NC(=O)[C@H](CCCN=C(N)N)NC(=O)[C@H](Cc1ccccc1)NC(=O)[C@@H](N)CO)C(C)C)[C@@H](C)O)C(=O)N[C@@H](CCCCN)C(=O)N[C@@H](CCCCN)C(=O)N[C@H](C(=O)N[C@@H](CO)C(=O)N[C@@H](Cc1ccccc1)C(=O)N[C@@H](CCC(N)=O)C(=O)N[C@@H](CCCN=C(N)N)C(=O)N[C@@H](C)C(=O)N[C@@H](CCCCN)C(=O)O)[C@@H](C)O (H-SFRN[d(tBuAla)]VGTGMKKTSFQRAK-OH)
Completion: 1660
